Documented Solubility in absolute ethanol across a set of sequences
assay: In vitro solubility in pure solvents; assay type: physicochemical; settings: thermodynamic, excess solid, rotated 24 h at ambient room temperature, 0.2 μm filtered, HPLC-UV 220 nm, mean ± SD, N = 3
No end group written: not given here.
Hey, just the number and the unit after it is fine.

KEQCVEMYTD [SP-A 10-AA PS] = 2060 ± 30 µg/mL

In: // Input: PAGRGKEQCVEMYTDGQWND [SP-A 20-AA AC] . Output its Solubility in absolute ethanol only.
Out: 20 ± 20 µg/mL

In: // Input: KEQCVEMYTD [SP-A 10-AA AC] . Output its Solubility in absolute ethanol only.
Out: 40 ± 10 µg/mL

In: // Input: PAGRGKEQCVEMYTDGQWND [SP-A 20-AA PS] . Output its Solubility in absolute ethanol only.
Out: 110 ± 50 µg/mL

###

assay: Octanol/water partition coefficient; type: physicochemical; settings: shake-flask 1-octanol/water 50:50 v/v, 3 mg peptide in 3 mL, 37 °C, 24 h shaking + 24 h separation, HPLC-UV 220 nm, mean ± SD, N = 3; read-out: Log P (octanol/water partition coefficient)
No end group written: not given here.
Observation Type: logP

In: // Input: KEQCVEMYTD [SP-A 10-AA AC] . Output its logP only.
Out: -1.07

###

Documented Enthalpy (ΔH) of melting across a set of substances
// units = J/g; emit number, no label

H-PAGRGKEQCVEMYTDGQWND-OH = 1.08

Shifting focus to the substance that follows.
In: // Input: H-KEQCVEMYTD-OH . Output its Enthalpy (ΔH) of melting only.
Out: 3.08

###

assay: In vitro solubility in pure solvents; type: physicochemical; conditions: thermodynamic, excess solid, rotated 24 h at ambient room temperature, 0.2 μm filtered, HPLC-UV 220 nm, mean ± SD, N = 3
No end group written: not given here.
Observation Type: Solubility in methanol (µg/mL)
// units = µg/mL; emit number, no label

Consider the worked cases shown below.
KEQCVEMYTD [SP-A 10-AA PS] = 4250
PAGRGKEQCVEMYTDGQWND [SP-A 20-AA PS] = 1450
KEQCVEMYTD [SP-A 10-AA AC] = 10

In: // Input: PAGRGKEQCVEMYTDGQWND [SP-A 20-AA AC] . Output its Solubility in methanol only.
Out: 20
